- target_system: Fyn (UniProt P06241)
- Sequence (P06241 whole entry, looked up): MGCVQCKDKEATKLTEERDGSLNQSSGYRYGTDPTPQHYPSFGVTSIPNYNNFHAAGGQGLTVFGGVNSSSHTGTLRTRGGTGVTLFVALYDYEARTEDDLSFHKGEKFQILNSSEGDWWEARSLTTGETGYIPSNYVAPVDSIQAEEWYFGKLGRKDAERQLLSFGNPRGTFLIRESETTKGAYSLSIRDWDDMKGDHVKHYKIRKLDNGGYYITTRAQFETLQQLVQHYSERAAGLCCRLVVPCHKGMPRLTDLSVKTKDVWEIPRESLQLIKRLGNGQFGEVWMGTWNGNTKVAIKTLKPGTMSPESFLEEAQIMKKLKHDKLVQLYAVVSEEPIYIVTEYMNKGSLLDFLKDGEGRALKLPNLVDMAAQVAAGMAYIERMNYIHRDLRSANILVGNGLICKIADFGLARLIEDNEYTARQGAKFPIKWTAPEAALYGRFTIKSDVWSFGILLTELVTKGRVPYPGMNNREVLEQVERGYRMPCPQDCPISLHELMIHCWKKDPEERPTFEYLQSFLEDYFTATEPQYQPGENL
- protocol_text: phosphorylation enrichment, bacterial display (enrichment ratio); higher = better substrate or ligand; peptides without Tyr show the background;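 also: 11-residue human phosphosite peptides and single-mutation variants displayed on the E. coli surface, counted by deep sequencing, each peptide's frequency after selection divided by its frequency in the unselected input library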;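 also: frequency after pTyr selection over input frequency; kinase dosed for 20-30% of maximal phosphorylation in three min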
property_name: phosphorylation enrichment
Format: numeric value only, no unit, no commentary.

Examples from the recorded data:
sequence_string	property_name	test_result
ERDYTYEELLN [EIF2S2_Y176]	phosphorylation enrichment	0.886
SFHCSYSEIKD [DCLRE1C_Y322_S320C]	phosphorylation enrichment	0.585
FMRGMYFRMKD [PLA2G6_Y541_YF]	phosphorylation enrichment	0.455
QVMDGYPIPIG [MMP14_Y353_M355I]	phosphorylation enrichment	0.592
ALAHKYHGGGG [HBB_Y146]	phosphorylation enrichment	0.426

May I ask what phosphorylation enrichment has been recorded for EPAVLYNLKER [MYH7_Y103_D107E] ?
0.511

What do you get for QKMLDYLKEKK [RYR2_Y3780] ?
0.542

Now this one: QSQQAYQEAFE [YWHAZ_Y149]
0.397

One more sequence: DFLSSYSAVNE [OAT_Y85_Q90E]
0.531

Also, FHKALYTVRSF [PDE6C_Y266_YF] please.
0.43
